Origin of measurements: PubChem BioAssay AID1159580

- Procedure Summary: chemical genetic growth profiling, strain panel (AID 1159580);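 further: tested at 20 µM; growth read once vehicle control cultures reached saturation at 30 °C; 1 = growth at the plate median or of vehicle wells; lower values mean less growth of the strain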
- Experimental Parameters: S. cerevisiae deletion strains, growth OD, locus YNL224C, strain SQS1, active compounds read low
About 2,000 (36%) of roughly 5,500 compounds were called active. Not shown: some 18% with an inconclusive outcome. The list shows a part of the results.
Value Type: normalized growth
Lab note: jot the number down without any unit.

Reference set (5 entries):
[
  {
    "Molecule": "Cc1nc2ccccn2c(=O)c1CCN1CCC(C(=O)c2ccc(F)cc2)CC1",
    "normalized growth": 1.01
  },
  {
    "Molecule": "NC(CCCP(=O)(O)O)C(=O)O (stereo unspecified)",
    "normalized growth": 1.02
  },
  {
    "Molecule": "Nc1ccn([C@@H]2O[C@H](CO)[C@@H](O)C2O)c(=O)n1 (stereo partly specified)",
    "normalized growth": 0.983
  },
  {
    "Molecule": "NS(=O)(=O)c1cc2c(cc1Cl)NC(C1CC3C=CC1C3)NS2(=O)=O (stereo unspecified)",
    "normalized growth": 0.992
  },
  {
    "Molecule": "OCC1O[C@H](O)C(Cl)C(O)C1O (stereo partly specified)",
    "normalized growth": 1
  }
]

Then this molecule:
Req: Assign normalized growth to the following record: CCCn1c(=O)c2[nH]c(-c3ccc(OCC(=O)Nc4ccc(C#N)cc4)cc3)nc2n(CCC)c1=O
Resp: 0.992

----------
- Procedure Summary: chemical genetic growth profiling, strain panel (AID 1159580);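 further: tested at 20 µM; growth read once vehicle control cultures reached saturation at 30 °C; 1 = growth at the plate median or of vehicle wells; lower values mean less growth of the strain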
- Experimental Parameters: S. cerevisiae deletion strains, growth OD, locus YOR231W, strain MKK1, active compounds read low
In all, about 5,500 compounds went through this assay and about 2,000 (36%) were called active. Roughly 18% stayed inconclusive and do not appear here. The list shows a part of the results.
Value Type: normalized growth

[
  {
    "Molecule": "O=C(Nc1ccc(Cl)cc1)O/N=C\\c1ccn(-c2ccccc2)n1",
    "normalized growth": "0.688 (inactive)"
  },
  {
    "Molecule": "Cc1nc2ccccn2c(=O)c1CCN1CCC(C(=O)c2ccc(F)cc2)CC1",
    "normalized growth": "1.04 (inactive)"
  },
  {
    "Molecule": "COc1c2ccccc2nc2occc12",
    "normalized growth": "0.861 (inactive)"
  },
  {
    "Molecule": "CC1C/C(=N/Nc2ccc(Br)cc2)c2cc(Cl)ccc2S1(=O)=O (stereo not given)",
    "normalized growth": "0.879 (inactive)"
  },
  {
    "Molecule": "CC(CN(C)C)CN1c2ccccc2CCc2ccccc21 (stereo not given)",
    "normalized growth": "0.983 (inactive)"
  }
]

Req: Assign normalized growth to the following record: CCN(CC)CCOC(=O)C(c1ccccc1)c1ccccc1
Resp: 0.989 (inactive)

Req: Assign normalized growth to the following record: CCN(CC)CCOCCOC(=O)C(CC)(CC)c1ccccc1
Resp: 0.993 (inactive)

Req: Assign normalized growth to the following record: CC(=O)OCC(=O)[C@@]1(O)[C@H](OC(C)=O)CC2C3CCC4=CC(=O)C=C[C@]4(C)[C@@]3(F)[C@@H](O)C[C@@]21C (stereo not given in full)
Resp: 0.982 (inactive)

Req: Assign normalized growth to the following record: CSC(=NNc1ccccc1)NC(=O)c1c(Cl)cccc1Cl
Resp: 0.82 (inactive)

Req: Assign normalized growth to the following record: CC(CN(C)C)CN1c2ccccc2Sc2ccccc21 (stereo not given)
Resp: 0.997 (inactive)
